Experiment: In vivo pharmacokinetics in rats
Parameters: species or system rat
Details: male, SD, rat, plasma, iv, 5 mg/kg, intravenously, 5 mg/kg, individual animals 101-103, read-out: t½ (converted)
Counter-ions that a name gives are not always drawn.
Experimental readout: half-life (h)

{"Compound": "COCCOc1ccc2c(c1)ncn2-c1ccc(NC(=O)Nc2cc(C(C)(C)C)n[nH]2)cc1 [Compound 77 Mesylate]", "Experimental readout": "half-life", "Value measured": 4.01}

###

Experiment: In vivo pharmacokinetics in rats
Set-up: species or system rat
Conditions: male, SD, rat, plasma, iv, 5 mg/kg, intravenously, individual animals 101-103
Counter-ions that a name gives are not always drawn.

{"Compound": "COCCOc1ccc2c(c1)ncn2-c1ccc(NC(=O)Nc2cc(C(C)(C)C)n[nH]2)cc1 [Compound 77 Mesylate]", "AUC(0-inf)": "15200 ng·h/mL"}

###

Assay: In vivo pharmacokinetics in rats
Set-up: species or system rat
Details: male, SD, rat, plasma, po, 10 mg/kg, orally, individual animals 201-203
Counter-ions that a name gives are not always drawn.

{"Compound": "COCCOc1ccc2c(c1)ncn2-c1ccc(NC(=O)Nc2cc(C(C)(C)C)n[nH]2)cc1 [Compound 77 Mesylate]", "Endpoint unit": "h", "MRT": 5.9}

###

Tested on: RS4; 11 (FLT3 wild type)
Test: In vitro growth inhibition (GI50), RS4; 11
Assay type: cell-based, human
Details: FLT3 wild type high-expressing cells RS4; 11

{"Structure notation": "CC(C)(C)c1cc(NC(=O)Nc2ccc(-n3cnc4ccccc43)cc2)[nH]n1", "GI50 value, RS4; 11 (in words)": "micromolar range"}
{"Structure notation": "CC(C)(C)c1cc(NC(=O)Nc2ccc(-n3cnc4cc(OCCN5CCOCC5)ccc43)cc2)no1", "GI50 value, RS4; 11 (in words)": "micromolar range"}
{"Structure notation": "CC(C)(C)c1cc(NC(=O)Nc2ccc(-n3cnc4cc(OCCN5CCOCC5)ccc43)cc2)[nH]n1", "GI50 value, RS4; 11 (in words)": "micromolar range"}
{"Structure notation": "CC(C)(C)c1cc(N)n(C(=O)Nc2ccc(-n3cnc4ccccc43)cc2)n1", "GI50 value, RS4; 11 (in words)": "micromolar range"}
{"Structure notation": "CC(C)(C)c1cc(NC(=O)Nc2ccc(-n3cnc4ccc(OCCN5CCOCC5)cc43)cc2)no1", "GI50 value, RS4; 11 (in words)": "micromolar range"}
{"Structure notation": "COCCOc1ccc2c(c1)ncn2-c1ccc(NC(=O)Nc2cc(C(C)(C)C)n[nH]2)cc1", "GI50 value, RS4; 11 (in words)": "micromolar range"}
{"Structure notation": "COc1ccc2c(c1)ncn2-c1ccc(NC(=O)Nc2cc(C(C)(C)C)n[nH]2)cc1", "GI50 value, RS4; 11 (in words)": "micromolar range"}

###

Experiment: Bidirectional transmembrane transport and P-gp efflux in Caco-2 monolayer cell model
Format: in vitro ADME
Conditions: human, Caco-2, pH 7.4; Concentration 10, Inhibitor − (without P-gp inhibitor GF120918)
Procedure: The Caco-2 cell transport experiment was performed using compound 77 of the present invention as a representative example. […] Data analysis: The apparent permeability coefficient (Papp) can be calculated by the rate at which a compound permeates the monolayer of Caco-2 cells. […] After concentrations at A side and B side were determined by LC-MS/MS, the Papp value in the A-B or B-A direction was calculated according to the following formula: Papp(A→B) or Papp(B→A)=(dQ/dt)/(A*C0)=(C2h*V)/(t*π2*C0) […]
Experimental readout: Papp B→A at 2 h (×10⁻⁶ cm/s)

{"Structure notation": "COCCOc1ccc2c(c1)ncn2-c1ccc(NC(=O)Nc2cc(C(C)(C)C)n[nH]2)cc1", "Value measured": 13.1}
{"Structure notation": "C[C@H]1O[C@@H](O[C@H]2[C@@H](O)C[C@H](O[C@H]3[C@@H](O)C[C@H](O[C@H]4CC[C@@]5(C)[C@H](CC[C@@H]6[C@@H]5C[C@@H](O)[C@]5(C)[C@@H](C7=CC(=O)OC7)CC[C@]65O)C4)O[C@@H]3C)O[C@@H]2C)C[C@H](O)[C@@H]1O", "Value measured": 20.4}
